- test: melting temperature; fluorescence melt of hairpins on a sequencing array, two-state fit, raised by 9.35 °C to match UV melts
- protocol_conditions: sodium 0.088 M
I'd appreciate it if you marked entries fulfilled when Tm is lower than 40 °C and not fulfilled when it is not.

Below are worked cases with known answers.
{"primary_sequence": "GCAGGGACGAAAGTCTGC (((..(((....))))))", "assigned_label": "not fulfilled"}
{"primary_sequence": "GCCTATCGAAAGATGGC (((.(((....))))))", "assigned_label": "not fulfilled"}
{"primary_sequence": "GGACGAGGAAACTCGTTC (.(((((....))))).)", "assigned_label": "not fulfilled"}
{"primary_sequence": "GGCCTCGGAAACGAGACC ((.((((....)))).))", "assigned_label": "not fulfilled"}
{"primary_sequence": "GATCTAAGAGTAGATC ((((((....))))))", "assigned_label": "fulfilled"}
{"primary_sequence": "GTGCTGGGAAACCGGTAC ((.(.((....)).).))", "assigned_label": "not fulfilled"}
{"primary_sequence": "GCTTACGGAAACATAAGC (((((.(....).)))))", "assigned_label": "fulfilled"}
{"primary_sequence": "GGATTGACGAAAGTCTCC (((..(((....))))))", "assigned_label": "fulfilled"}
{"primary_sequence": "GTGACTGCGAAAGCACAC (((..(((....))))))", "assigned_label": "fulfilled"}
{"primary_sequence": "GGTGGTGAAAACCACC ((((((....))))))", "assigned_label": "not fulfilled"}

Ask: Identify whether the sequence GCGTTCGAAAGAACTCGC ((((((....)))..))) records Tm below 40 °C.
Reply: not fulfilled

Ask: Identify whether the sequence GATCGTCGTTACGATC ((((((....)))))) records Tm below 40 °C.
Reply: not fulfilled

Ask: Identify whether the sequence GATCTGTGATCAGATC ((((((....)))))) records Tm below 40 °C.
Reply: not fulfilled

Ask: Identify whether the sequence GCACGGCGAAAGCCAAGC ((..(((....)))..)) records Tm below 40 °C.
Reply: not fulfilled

Ask: Identify whether the sequence GACTGTACGAAAGTAGTC (((..(((....)))))) records Tm below 40 °C.
Reply: fulfilled

Ask: Identify whether the sequence GATCCAAGGTTGGATC ((((((....)))))) records Tm below 40 °C.
Reply: not fulfilled

Ask: Identify whether the sequence GATCAGAGCCTGATC ((((((...)))))) records Tm below 40 °C.
Reply: not fulfilled
